# method_summary: Selectivity ratio of Ki for horse serum BuChE to Ki for human erythrocytes AchE
Kindly state Ratio Ki for each of the entries shown.
Enter the number alone.

Inquiry: Consider the molecule COc1ccc2c(c1)C(=O)/C(=C/C1CCN(Cc3ccccc3)CC1)C2 and give its measured Ratio Ki.
Reply text: 4

Inquiry: Please answer likewise for COc1ccc2c(c1)C/C(=C\C1CCN(Cc3ccccc3)CC1)C2=O
Reply text: 110

Inquiry: Please answer likewise for COc1cc2c(cc1OC)C(=O)/C(=C/C1CCN(Cc3ccccc3)CC1)C2
Reply text: 71

Inquiry: Please answer likewise for COc1cccc2c1C(=O)/C(=C/C1CCN(Cc3ccccc3)CC1)C2
Reply text: 2

Inquiry: Please answer likewise for COc1cccc(CN2CCC(/C=C3\Cc4cc(OC)ccc4C3=O)CC2)c1
Reply text: 6

Inquiry: Please answer likewise for COc1cc2c(cc1O)C(=O)/C(=C/C1CCN(Cc3ccccc3)CC1)C2
Reply text: 4

Inquiry: Please answer likewise for O=C1/C(=C/C2CCN(Cc3ccccc3)CC2)Cc2cc(O)ccc21
Reply text: 4

Inquiry: Please answer likewise for O=C1/C(=C/C2CCN(Cc3ccccc3)CC2)Cc2cccc(O)c21
Reply text: 18

* * *

# target_system: Beta-secretase 1 (Mus musculus) (UniProt P56818)
# Sequence (P56818 whole entry): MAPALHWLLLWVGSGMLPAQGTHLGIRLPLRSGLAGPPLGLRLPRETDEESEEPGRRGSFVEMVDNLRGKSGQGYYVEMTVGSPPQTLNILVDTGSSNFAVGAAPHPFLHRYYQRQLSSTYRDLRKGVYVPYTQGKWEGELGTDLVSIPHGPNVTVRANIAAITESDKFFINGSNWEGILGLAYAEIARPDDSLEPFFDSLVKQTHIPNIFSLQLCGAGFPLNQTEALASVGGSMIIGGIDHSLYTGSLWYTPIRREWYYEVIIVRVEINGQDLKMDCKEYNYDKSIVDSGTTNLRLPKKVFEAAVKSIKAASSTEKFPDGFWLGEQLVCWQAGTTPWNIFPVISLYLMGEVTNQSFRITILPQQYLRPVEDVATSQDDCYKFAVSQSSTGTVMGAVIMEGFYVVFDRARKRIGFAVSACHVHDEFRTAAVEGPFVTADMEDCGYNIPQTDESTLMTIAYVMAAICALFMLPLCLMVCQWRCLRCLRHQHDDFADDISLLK
# method_summary: Inhibition of mouse BACE-1 at 1 uM preincubated for 10 mins followed by fluorescent peptide substrate addition measured for 30 mins by fluorescence plate reader method
The source made the active and inactive calls. No cut-off for these calls is given here.
Parameter call: string, one of 1 for active, -1 for inactive

Inquiry: For O=C1/C(=C/C2CCN(Cc3ccccc3)CC2)Cc2cc(O)ccc21 , what call appears in the results of this test?
Reply text: 1

Inquiry: Please answer likewise for O=C1/C(=C/C2CCN(Cc3ccccc3)CC2)Cc2cccc(O)c21
Reply text: 1

Inquiry: Please answer likewise for COc1ccc2c(c1)C(=O)/C(=C/C1CCN(Cc3ccc4c(c3)OCO4)CC1)C2
Reply text: -1

Inquiry: Please answer likewise for COc1ccc2c(c1)C/C(=C\C1CCN(Cc3ccccc3)CC1)C2=O
Reply text: 1

Inquiry: Please answer likewise for COc1cccc(CN2CCC(/C=C3\Cc4cc(OC)ccc4C3=O)CC2)c1
Reply text: 1

Inquiry: Please answer likewise for O=C1/C(=C/C2CCN(Cc3ccccc3)CC2)Cc2cc3c(cc21)OCO3
Reply text: 1

Inquiry: Please answer likewise for COc1cc2c(cc1OC)C(=O)/C(=C/C1CCN(Cc3ccccc3)CC1)C2
Reply text: 1

Inquiry: Please answer likewise for COc1cccc2c1C(=O)/C(=C/C1CCN(Cc3ccc4c(c3)OCO4)CC1)C2
Reply text: -1

* * *

# target_system: Cholinesterase (Equus caballus)
# Sequence (P81908 whole entry): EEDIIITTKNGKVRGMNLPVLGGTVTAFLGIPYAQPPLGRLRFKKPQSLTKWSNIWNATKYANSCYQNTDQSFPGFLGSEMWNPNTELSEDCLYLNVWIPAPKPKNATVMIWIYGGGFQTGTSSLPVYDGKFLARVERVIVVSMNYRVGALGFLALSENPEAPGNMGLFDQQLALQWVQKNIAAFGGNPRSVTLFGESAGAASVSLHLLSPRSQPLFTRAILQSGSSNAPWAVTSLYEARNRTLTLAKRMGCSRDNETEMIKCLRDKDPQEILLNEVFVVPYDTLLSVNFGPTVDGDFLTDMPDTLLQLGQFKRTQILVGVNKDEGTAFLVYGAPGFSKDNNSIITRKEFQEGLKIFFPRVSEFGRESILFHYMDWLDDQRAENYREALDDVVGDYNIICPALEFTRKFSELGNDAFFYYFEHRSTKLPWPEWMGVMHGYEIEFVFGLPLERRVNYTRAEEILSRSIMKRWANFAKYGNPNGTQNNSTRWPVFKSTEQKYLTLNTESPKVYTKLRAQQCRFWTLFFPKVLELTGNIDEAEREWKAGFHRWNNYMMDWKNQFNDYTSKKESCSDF
# method_summary: Inhibition of horse serum BuChE using butyrylthiocoline iodide as substrate incubated for 20 mins by Ellman method
Kindly state pIC50 for each of the entries shown.
Interpret pIC50 as the negative base-10 log of the concentration measured in mol/L.

Inquiry: Consider the compound COc1cccc2c1C(=O)/C(=C/C1CCN(Cc3ccccc3)CC1)C2 and give its measured pIC50.
Reply text: 5.94

Inquiry: Please answer likewise for COc1cccc(CN2CCC(/C=C3\Cc4ccc(OC)cc4C3=O)CC2)c1
Reply text: 5.79

Inquiry: Please answer likewise for COc1cccc2c1C(=O)/C(=C/C1CCN(Cc3ccc4c(c3)OCO4)CC1)C2
Reply text: 5.32

Inquiry: Please answer likewise for COc1ccc2c(c1)C(=O)/C(=C/C1CCN(Cc3ccccc3)CC1)C2
Reply text: 5.58

Inquiry: Please answer likewise for O=C1/C(=C/C2CCN(Cc3ccccc3)CC2)Cc2cc3c(cc21)OCO3
Reply text: 4.82

Inquiry: Please answer likewise for O=C1/C(=C/C2CCN(Cc3ccccc3)CC2)Cc2ccc(O)cc21
Reply text: 5.24

Inquiry: Please answer likewise for COc1ccc2c(c1)C(=O)/C(=C/C1CCN(Cc3ccc4c(c3)OCO4)CC1)C2
Reply text: 5.01

Inquiry: Please answer likewise for COc1cc2c(cc1O)C/C(=C\C1CCN(Cc3ccccc3)CC1)C2=O
Reply text: 5.13

Inquiry: Please answer likewise for COc1cccc(CN2CCC(/C=C3\Cc4cc(OC)ccc4C3=O)CC2)c1
Reply text: 5.66

Inquiry: Please answer likewise for O=C1/C(=C/C2CCN(Cc3ccccc3)CC2)Cc2cc(O)ccc21
Reply text: 5.12
